- assay_target: BRM (Homo sapiens, UniProt P51531)
- Construct: made in house; host or cells: High Five insect cells
- Sequence (P51531 whole entry): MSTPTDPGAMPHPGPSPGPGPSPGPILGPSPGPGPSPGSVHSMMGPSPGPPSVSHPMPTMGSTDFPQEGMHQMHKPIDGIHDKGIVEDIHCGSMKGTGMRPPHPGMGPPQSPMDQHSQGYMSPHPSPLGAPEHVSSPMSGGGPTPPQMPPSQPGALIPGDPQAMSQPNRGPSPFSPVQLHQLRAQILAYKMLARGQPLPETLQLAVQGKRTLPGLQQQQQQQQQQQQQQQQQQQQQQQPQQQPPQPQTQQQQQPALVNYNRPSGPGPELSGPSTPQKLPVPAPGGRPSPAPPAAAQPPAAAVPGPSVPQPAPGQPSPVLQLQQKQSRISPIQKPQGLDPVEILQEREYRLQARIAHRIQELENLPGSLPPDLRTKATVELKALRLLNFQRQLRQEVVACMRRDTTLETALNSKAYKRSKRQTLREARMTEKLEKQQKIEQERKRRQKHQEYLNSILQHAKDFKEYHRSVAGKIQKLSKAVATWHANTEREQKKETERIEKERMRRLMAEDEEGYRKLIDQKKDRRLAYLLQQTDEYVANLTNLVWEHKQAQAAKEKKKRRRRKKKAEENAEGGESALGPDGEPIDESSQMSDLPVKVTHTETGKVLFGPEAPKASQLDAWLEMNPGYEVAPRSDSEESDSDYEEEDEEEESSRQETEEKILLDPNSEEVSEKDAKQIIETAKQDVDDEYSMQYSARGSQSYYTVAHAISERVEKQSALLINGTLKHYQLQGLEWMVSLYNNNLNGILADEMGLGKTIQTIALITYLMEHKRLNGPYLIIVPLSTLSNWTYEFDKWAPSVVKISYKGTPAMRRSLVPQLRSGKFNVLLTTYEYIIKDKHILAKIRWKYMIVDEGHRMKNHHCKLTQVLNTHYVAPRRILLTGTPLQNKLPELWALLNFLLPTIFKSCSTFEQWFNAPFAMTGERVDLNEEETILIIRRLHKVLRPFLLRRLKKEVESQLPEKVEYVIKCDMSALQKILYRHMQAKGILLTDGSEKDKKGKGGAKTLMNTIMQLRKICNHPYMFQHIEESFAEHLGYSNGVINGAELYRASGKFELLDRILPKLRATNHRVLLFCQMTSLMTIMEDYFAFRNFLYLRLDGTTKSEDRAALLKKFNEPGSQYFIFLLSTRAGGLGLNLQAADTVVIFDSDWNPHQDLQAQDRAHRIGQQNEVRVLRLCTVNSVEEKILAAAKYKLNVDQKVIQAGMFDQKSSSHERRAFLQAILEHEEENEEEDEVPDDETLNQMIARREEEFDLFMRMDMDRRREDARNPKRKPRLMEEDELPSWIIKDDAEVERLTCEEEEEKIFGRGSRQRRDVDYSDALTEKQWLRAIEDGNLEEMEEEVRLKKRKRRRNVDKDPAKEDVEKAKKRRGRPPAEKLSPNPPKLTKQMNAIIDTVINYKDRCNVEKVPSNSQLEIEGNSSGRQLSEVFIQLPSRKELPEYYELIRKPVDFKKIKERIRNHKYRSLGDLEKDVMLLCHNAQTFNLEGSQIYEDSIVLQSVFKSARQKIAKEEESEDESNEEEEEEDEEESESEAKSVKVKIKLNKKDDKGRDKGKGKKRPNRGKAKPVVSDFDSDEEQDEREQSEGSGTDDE
- test_name: ATPase catalytic activity of BRM, ADP-Glo in vitro biochemical assay
- measurement_context: ATPase catalytic activity, ADP-Glo; 30 nM BRM, 400 μM ATP
assay_readout: pIC50
One number for each entry, as −log10 of the molar value.

>>> experimental_value("COCCOc1ccc2c(c1)N(c1ccc3cnc(CNC(=O)c4ccc5c(c4)S(=O)(=O)CCOC5)cc3n1)CCC2 [Compound 586]")
8.26
>>> experimental_value("O=C(NCc1cc2nc(-c3cccc(C4CCOC4)n3)ccc2cn1)c1ccc2c(c1)S(=O)(=O)CCOC2 (centres unmarked) [Compound 376]")
7.18
>>> experimental_value("Cc1ccnc2c1N(C)CCN2c1ccc2cnc(CNC(=O)c3ccc4c(c3)S(=O)(=O)CCOC4)cc2n1 [Compound 681]")
7.48
>>> experimental_value("CN(C[C@H]1CCO1)c1cccc(-c2ccc3cnc(CNC(=O)c4ccc5c(c4)S(=O)(=O)CCOC5)cc3n2)n1 [Compound 383]")
8.18

Hey, quick one: what's pIC50 for each of these?
1. O=C(NCc1cc2nc(N3CCCc4ccc(C5CCCO5)nc43)ccc2cn1)c1ccc2c(c1)S(=O)(=O)CCOC2 (centres unmarked) [Compound 659]
2. O=C(NCc1cc2nc(-c3cccc(C4CC4)n3)cnc2cn1)c1cc(F)c2c(c1)S(=O)(=O)CCOC2 [Compound 424]
3. O=C(NCc1cc2nc(N3CCCc4cc(Cl)cnc43)ccc2cn1)c1ccc2c(c1)S(=O)(=O)CCOC2 [Compound 588]
4. O=C(NCc1cc2nc(N3CCOc4cc(Cl)cnc43)ccc2cn1)c1cc(F)c2c(c1)S(=O)(=O)CCOC2 [Compound 691]
5. COC[C@@H](C)Oc1ccc2c(c1)N(c1ccc3cnc(CNC(=O)c4ccc5c(c4)S(=O)(=O)CCOC5)cc3n1)CCC2 [Compound 696]

(A)
7.37
7.68
7.54
8.02
8.17

----------
- assay_target: BRM (Homo sapiens, UniProt P51531)
- Construct: made in house; host or cells: High Five insect cells
- test_name: ATPase catalytic activity of BRM, ADP-Glo in vitro biochemical assay
- measurement_context: ATPase catalytic activity, ADP-Glo; 30 nM BRM, 400 μM ATP
IC50 less than 20 nM is Yes; IC50 greater than or equal to 20 nM is No.

>>> qualitative_label("C[C@@H]1CN(c2cccc(-c3ccc4cnc(CNC(=O)c5cc(Cl)c6c(c5)S(=O)(=O)[C@@H](C)CCO6)cc4n3)n2)C[C@H](C)O1 [Compound 484]")
"Yes"

(Q) Is 20 nM strictly greater than the compound's reported IC50? compound: Cc1cnc2c(c1)CCN2c1ccc2cnc(CNC(=O)c3ccc4c(c3)S(=O)(=O)CCOC4)cc2n1 [Compound 656]
(A) Yes

----------
- assay_target: BRM (Homo sapiens, UniProt P51531)
- Construct: made in house; host or cells: High Five insect cells
- test_name: ATPase catalytic activity of BRM, ADP-Glo in vitro biochemical assay
- measurement_context: ATPase catalytic activity, ADP-Glo; 30 nM BRM, 400 μM ATP
Please go through the items and note down their IC50.
Numbers only, in nM.

>>> experimental_value("CO[C@@H]1CN(c2cccc(-c3ccc4cnc(CNC(=O)c5ccc6c(c5)S(=O)(=O)CCOC6)cc4n3)n2)C[C@@H]1F")
17.1
>>> experimental_value("C[C@@H]1CN(c2cccc(-c3ccc4cnc(CNC(=O)c5ccc6c(c5)S(=O)(=O)CCCOC6)cc4n3)n2)C[C@H](C)O1")
2.7
>>> experimental_value("C[C@H]1COCc2ccc(C(=O)NCc3cc4nc(-c5cccc(OC(F)F)n5)ccc4cn3)cc2S1(=O)=O")
14.3
>>> experimental_value("COC[C@H](C)Oc1ccc2c(c1)N(c1ccc3cnc(CNC(=O)c4ccc5c(c4)S(=O)(=O)CCOC5)cc3n1)CCC2")
4.9
>>> experimental_value("CO[C@@H]1C[C@H]1N(C)c1cccc(-c2ccc3cnc(CNC(=O)c4ccc5c(c4)S(=O)(=O)[C@@H](C)COC5)cc3n2)n1")
15.2

Hi team, please reply with IC50 for each item in this list.
1. O=C(NCc1cc2nc(N3CCCc4ccc(Cl)nc43)ccc2cn1)c1ccc2c(c1)S(=O)(=O)CCOC2
2. CC(F)(F)c1ccc2c(n1)N(c1ccc3cnc(CNC(=O)c4ccc5c(c4)S(=O)(=O)CCOC5)cc3n1)CCO2
3. O=C(NCc1cc2nc(-c3cccc(N(C4CCOCC4)C4CC4)n3)ccc2cn1)c1ccc2c(c1)S(=O)(=O)CCOC2
4. CO[C@H]1CN(c2cccc(-c3ccc4cnc(CNC(=O)c5ccc6c(c5)S(=O)(=O)CCOC6)cc4n3)n2)C[C@H]1F
5. O=C(NCc1cc2nc(N3CCCc4c(OC5CC5)ccnc43)ccc2cn1)c1ccc2c(c1)S(=O)(=O)CCOC2
6. CCO[C@H](C)c1ccc2c(n1)N(c1ccc3cnc(CNC(=O)c4ccc5c(c4)S(=O)(=O)CCOC5)cc3n1)CCC2

(A)
1: 16.9; 2: 90.4; 3: 185; 4: 16.6; 5: 3.8; 6: 271

For each of the compounds below, note its IC50.
1. C[C@@H]1CN(c2cccc(-c3ccc4cnc(CNC(=O)c5ccc6c(c5)S(=O)(=O)CC[C@@H]6C)cc4n3)n2)C[C@H](C)O1
2. Cc1ccc2c(n1)N(c1ccc3cnc(CNC(=O)c4ccc5c(c4)S(=O)(=O)CCOC5)cc3n1)CCO2
3. CCO[C@@H](C)c1ccc2c(n1)N(c1ccc3cnc(CNC(=O)c4ccc5c(c4)S(=O)(=O)CCOC5)cc3n1)CCC2
4. COCCN(C)c1cccc(-c2ccc3cnc(CNC(=O)c4ccc5c(c4)S(=O)(=O)CCOC5)cc3n2)c1OC
5. CN(CCC(F)F)c1cccc(-c2ccc3cnc(CNC(=O)c4ccc5c(c4)S(=O)(=O)CCOC5)cc3n2)n1

(A)
43.8
11.3
168
1230
24.2

Can you give me IC50 for all of these, one by one?
1. C[C@@H]1Cc2ccc(-c3ccc4cnc(CNC(=O)c5ccc6c(c5)S(=O)(=O)CCOC6)cc4n3)nc2N(C)C1
2. COc1cc(Cl)ccc1-c1ccc2cnc(CNC(=O)c3ccc4c(c3)S(=O)(=O)[C@@H](C)COC4)cc2n1
3. C[C@@H]1CN(c2cccc(-c3ccc4cnc(CNC(=O)c5ccc6c(c5)S(=O)(=O)[C@H](C)CO6)cc4n3)n2)C[C@H](C)O1
4. O=C(NCc1cc2nc(-c3ccc(C(F)F)cc3OC3CC3)ccc2cn1)c1ccc2c(c1)S(=O)(=O)CCOC2

(A)
1. 43.9
2. 9.2
3. 484
4. 21.4
